target entity: recombinant full-length human prolyl endopeptidase (PREP) (Homo sapiens, UniProt P48147)
Construct: To recombinant full-length human prolyl endopeptidase (PREP, R&D-Systems, 4308-SE)
Sequence (P48147 whole entry): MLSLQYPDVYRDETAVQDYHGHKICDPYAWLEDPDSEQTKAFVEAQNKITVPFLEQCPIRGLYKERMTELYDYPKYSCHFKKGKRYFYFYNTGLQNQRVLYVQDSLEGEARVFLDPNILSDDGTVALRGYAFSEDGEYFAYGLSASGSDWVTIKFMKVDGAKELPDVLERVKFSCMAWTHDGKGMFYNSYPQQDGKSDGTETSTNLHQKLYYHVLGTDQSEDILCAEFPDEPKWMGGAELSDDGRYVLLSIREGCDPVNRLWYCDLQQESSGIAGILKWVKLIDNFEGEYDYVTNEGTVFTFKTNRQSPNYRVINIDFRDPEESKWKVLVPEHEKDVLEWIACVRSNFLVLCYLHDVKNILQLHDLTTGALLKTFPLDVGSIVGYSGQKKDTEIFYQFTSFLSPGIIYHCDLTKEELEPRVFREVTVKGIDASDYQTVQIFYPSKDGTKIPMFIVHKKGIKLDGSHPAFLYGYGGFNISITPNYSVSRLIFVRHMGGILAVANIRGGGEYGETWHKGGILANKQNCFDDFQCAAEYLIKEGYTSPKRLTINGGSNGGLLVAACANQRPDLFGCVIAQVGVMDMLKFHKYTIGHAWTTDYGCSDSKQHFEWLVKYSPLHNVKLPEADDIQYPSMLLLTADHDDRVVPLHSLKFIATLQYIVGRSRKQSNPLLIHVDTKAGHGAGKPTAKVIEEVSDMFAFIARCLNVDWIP
assay info: Biochemical human prolyl endopeptidase (PREP) assay with fluorescently labelled substrate
condition info: substrate Z-Gly-Pro-AMC 50 μM, 32° C., 60 min; some as mean values from multiple independent determinations
Would you mind telling me the reported pIC50 of each entry?
To interpret pIC50, take it as minus log10 of a concentration measured in moles per litre.

Using the record for Cc1nc(C)c(Cn2nc3n(c2=O)C(C(=O)N2CCCC2)CCC3)nc1C (racemic) [Example 103] , state its measured pIC50. 9.80

State its pIC50 for this compound: Cc1ccc(Cn2nc3n(c2=O)[C@H](C(=O)N2CC[C@@H]2C)CCC3)cc1 7.67

Quick one: give measured pIC50 for O=C([C@@H]1CCCc2nn(Cc3ncc(C(F)(F)F)cc3Cl)c(=O)n21)N1CC[C@H](F)C1 9.65

Specify measured pIC50 for O=C([C@@H]1CCCc2nn(Cc3ccc(Cl)nc3)c(=O)n21)N1C[C@@H](F)[C@@H](F)C1 . 9.42

---

target entity: recombinant full-length human prolyl endopeptidase (PREP) (Homo sapiens)
Construct: To recombinant full-length human prolyl endopeptidase (PREP, R&D-Systems, 4308-SE)
assay info: Biochemical human prolyl endopeptidase (PREP) assay with fluorescently labelled substrate
condition info: substrate Z-Gly-Pro-AMC 50 μM, 32° C., 60 min; some as mean values from multiple independent determinations
property label: IC50 (nM)
I only need the number, in nM, no unit after it.

Recall and state the measured IC50 for Cc1ccc(Cn2nc3n(c2=O)[C@H](C(=O)N2CC4(C2)CC4(F)F)CCC3)cc1 . 2.8

Consider the molecule Cc1ccc(Cn2nc3n(c2=O)C(C(=O)N2CCC(=O)C2)CCC3)cc1 (single isomer, unassigned) [Example 119] . State its measured IC50. 1.4

Fill in reported IC50 for this entry: COc1ccc(Cn2nc3n(c2=O)[C@H](C(=O)N2CC(F)(F)C2)CCC3)nc1 34

Name the recorded IC50 of the item O=C([C@@H]1CCCc2nn(Cc3cccc(C(F)(F)F)c3)c(=O)n21)N1CC(F)C1 in your answer. 1.4

// fetch IC50 given entry O=C(C1CC(C(F)(F)F)Cc2nn(Cc3ccc(C(F)(F)F)nc3)c(=O)n21)N1CC(O)C1 (racemic) [Example 233] 203

Given the molecule CC1CCC(C(=O)N2C[C@@H](F)[C@@H](F)C2)n2c1nn(Cc1ccc(F)cc1F)c2=O (mixture of isomers) , write its reported IC50. 1.2

Quick one: give measured IC50 for O=C(C1CCCc2nn(Cc3ccc(Cl)s3)c(=O)n21)N1CCC(F)(F)C1 (racemic) 1.3

---

target entity: recombinant full-length human prolyl endopeptidase (PREP) (Homo sapiens)
Construct: To recombinant full-length human prolyl endopeptidase (PREP, R&D-Systems, 4308-SE)
assay info: Biochemical human prolyl endopeptidase (PREP) assay with fluorescently labelled substrate
condition info: substrate Z-Gly-Pro-AMC 50 μM, 32° C., 60 min; some as mean values from multiple independent determinations
property label: log10 of IC50 (log10 of the value in nM)
Heads up: the numbers are on a log10 scale; they represent IC50 in nM.

Annotate the compound O=C([C@@H]1CCCc2nn(Cc3cc(C(F)(F)F)c(Cl)cn3)c(=O)n21)N1CC[C@H](O)C1 [Example 374] with its measured log10 of IC50. 1.71

Return log10 of IC50 for the following compound: CC1Cc2nn(Cc3ccc(C(F)(F)F)nc3)c(=O)n2C(C(=O)N2CC[C@H](F)C2)C1 (mixture of isomers) [Example 136] 0.07

Input CC1CCC(C(=O)N2CC[C@H](F)C2)n2c1nn(Cc1ccc(F)c(Cl)c1)c2=O (mixture of isomers) [Example 320] , output reported log10 of IC50. -0.16

Give log10 of IC50 for the following compound: O=C([C@@H]1CCCc2nn(Cc3nccc(C(F)(F)F)c3Cl)c(=O)n21)N1C[C@@H](F)[C@@H](F)C1 [Example 388] -0.24

Report log10 of IC50 for COc1ccc(Cn2nc3n(c2=O)[C@H](C(=O)N2C[C@@H](F)[C@@H](F)C2)CCC3)cn1 [Example 431] 0.00

Specify log10 of IC50 for O=C([C@@H]1CCCc2nn(Cc3ccc(C(F)(F)F)nc3)c(=O)n21)N1CC[C@H](F)C1 [Example 427] and stop. 0.04

Complete the entry with log10 of IC50 for O=C(C1CC(C(F)(F)F)Cc2nn(Cc3ccc(Cl)nc3)c(=O)n21)N1CC[C@H](F)C1 (single isomer, unassigned) [Example 244] 1.04

Indicate its recorded log10 of IC50; the compound in question is O=C(C1CC(C(F)(F)F)Cc2nn(Cc3ccnc(C(F)(F)F)c3F)c(=O)n21)N1CC(F)C1 (single isomer, unassigned) [Example 253] 2.08

Specify log10 of IC50 for Cc1ccc(Cn2nc3n(c2=O)C(C(=O)N2CCCC2)CCC3)cc1 (racemic) [Example 25] and stop. -0.12

Please indicate log10 of IC50 recorded for O=C([C@@H]1CCCc2nn(Cc3cncc(C(F)(F)F)c3)c(=O)n21)N1CCCC1 [Example 535] 0.71

Please report the measured log10 of IC50 for O=C([C@@H]1CCCc2nn(CC3(c4ccc(F)cc4F)CC3)c(=O)n21)N1CCCC1 [Example 530] -0.66

Tell me its log10 of IC50 given O=C(C1CCCc2nn(Cc3ccc(C(F)(F)F)nc3)c(=O)n21)N1CC(F)C1 (racemic) [Example 96] as the entry. 0.87

Fill in log10 of IC50 for record CC1CCC(C(=O)N2C[C@@H](F)[C@@H](F)C2)n2c1nn(Cc1ccc(C(F)(F)F)nc1)c2=O (mixture of isomers) [Example 325] 0.18

Please look at this compound and report its log10 of IC50: O=C([C@@H]1CCCc2nn(Cc3cc(C(F)(F)F)nc4ccccc34)c(=O)n21)N1C[C@@H](F)[C@@H](F)C1 [Example 497] -0.74

Give log10 of IC50 for O=C(C1CCCc2nn(Cc3cccc(F)c3)c(=O)n21)N1CCCC1 (racemic) [Example 16] 0.34

# return recorded log10 of IC50 for input O=C(C1CC(C(F)(F)F)Cc2nn(Cc3ccc(Cl)nc3)c(=O)n21)N1CC[C@@H](F)C1 (single isomer, unassigned) [Example 247] 2.96

Indicate the recorded log10 of IC50 value for this compound: Cc1ccc(C2(Cn3nc4n(c3=O)[C@H](C(=O)N3CCC(F)(F)C3)CCC4)CC2)cc1 [Example 524] 0.46

Return the recorded log10 of IC50 value; entry: O=C([C@@H]1CCCc2nn(Cc3ccc(C(F)(F)F)nc3)c(=O)n21)N1CCC(F)(F)C1 [Example 426] 0.84

State its log10 of IC50: CCn1ccnc1Cn1nc2n(c1=O)C(C(=O)N1CCCC1)CCC2 (racemic) [Example 70] 1.04

Item O=C([C@@H]1CCCc2nn(Cc3cc(C(F)(F)F)nc4ccccc34)c(=O)n21)N1CC[C@H](F)C1 [Example 539] : provide log10 of IC50 -0.07

Find the measured log10 of IC50 of Cc1ccc(Cn2nc3n(c2=O)[C@H](C(=O)N2CCC(C)(F)C2)CCC3)cc1 (mixture of isomers) [Example 151] and report it. -0.59

Kindly indicate its recorded log10 of IC50. Item: O=C([C@@H]1CCCc2nn(Cc3cccc(C(F)(F)F)n3)c(=O)n21)N1CC[C@H](F)C1 [Example 370] 0.00

Give a short answer stating reported log10 of IC50 for O=C(C1C(C(F)(F)F)CCc2nn(Cc3ncc(Cl)cc3F)c(=O)n21)N1CCC(F)(F)C1 (single isomer, unassigned) [Example 297] . 2.06

Give reported log10 of IC50 value for O=C(C1CCc2nn(Cc3ccc(F)c(Cl)c3)c(=O)n21)N1CC[C@H](F)C1 (mixture of isomers) [Example 165] -0.05

Look up and report measured log10 of IC50 for this entry: O=C([C@@H]1CCCc2nn(Cc3ccc(F)cc3F)c(=O)n21)N1C[C@@H](F)[C@@H](F)C1 [Example 489] -0.96

Quickly give me recorded log10 of IC50 for Cc1ccc(Cn2nc3n(c2=O)C(C)(C(=O)N2CCCC2)CCC3)cc1 (racemic) [Example 105] 1.02

Given the compound O=C(C1CC(C(F)(F)F)Cc2nn(Cc3ccnc(C(F)(F)F)c3F)c(=O)n21)N1C[C@@H](F)[C@@H](F)C1 (single isomer, unassigned) [Example 260] , write its reported log10 of IC50. 0.41

Query log10 of IC50 for O=C([C@@H]1CCCc2nn(Cc3cc(C(F)(F)F)nc4ccc(F)cc34)c(=O)n21)N1CCCC1 [Example 498] -0.36

Ref: patent US10722501B2
